Each recorded value in this set is attributed to patent US6777418B2.

- target: RAR beta (Homo sapiens)
- Sequence (P10826 whole entry): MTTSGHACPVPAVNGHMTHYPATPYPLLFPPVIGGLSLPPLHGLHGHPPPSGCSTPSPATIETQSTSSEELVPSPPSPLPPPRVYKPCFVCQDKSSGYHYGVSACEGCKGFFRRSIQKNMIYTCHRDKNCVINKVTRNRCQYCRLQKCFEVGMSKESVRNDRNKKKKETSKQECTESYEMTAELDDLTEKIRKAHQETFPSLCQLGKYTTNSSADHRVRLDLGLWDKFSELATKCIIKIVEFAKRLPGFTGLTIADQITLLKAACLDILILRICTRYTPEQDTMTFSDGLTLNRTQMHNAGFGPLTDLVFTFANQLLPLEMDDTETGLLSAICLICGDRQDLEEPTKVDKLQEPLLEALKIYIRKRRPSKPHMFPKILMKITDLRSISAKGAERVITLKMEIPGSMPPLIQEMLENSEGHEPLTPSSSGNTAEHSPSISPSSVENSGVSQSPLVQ
- test-protocol: Ligand binding assay, retinoid receptors (Apfel et al.), RAR beta
- settings: second value of the cell, read-out: IC50 nM (alpha/beta/gamma): beta
- Description: The retinoic acid receptor agonist selectivity of a compound of the invention may be determined by using ligand binding assays known to the skilled artisan (Apfel et al., Proc. Natl. Acad. Sci., (1992), 89, 7129; Teng et al., J. Med. Chem., (1997), 40, 2445; Bryce et al., U.S. Pat. No. 5,807,900 which are herein incorporated by reference). […] The RAR α antagonist selectivity of compounds of the invention was determined by the ligand binding assays described in C. […]
recorded-endpoint: IC50 (nM)
Give the value, in units of nM, as a plain number.

Completed entries (count: 2):
molecule="CC1(C)CCC(C)(C)c2cc(CSCc3ccco3)c(/C=C/c3ccc(C(=O)O)cc3)cc21 [Compound 8]" unit_symbol=nM endpoint_value=450
molecule="CC1(C)CCC(C)(C)c2cc(Cn3cccc3)c(/C=C/c3ccc(C(=O)O)cc3)cc21 [Compound 7]" unit_symbol=nM endpoint_value=140

Here is the next item to consider.
[ask] Field request: IC50 | item: CCC(C)CSCc1cc2c(cc1/C=C/c1ccc(C(=O)O)cc1)C(C)(C)CCC2(C)C (stereo not drawn) [Compound 3]
[reply] 100
